Listed compounds paired with reported pIC50
molecular target: LymP2X (Lymnaea stagnalis, UniProt K7QP77); construct: full-length, 435 residues, shorter clone starting at second in-frame ATG; cRNA injected in Xenopus oocytes; homotrimer expected (P2X family); differs from contig FX193730 in 50 residues of the cysteine-rich head (possible alternative exon); assay: two-electrode voltage clamp, Xenopus oocytes
The quantity pIC50 is defined as the negative base-10 logarithm of the molar concentration.

>  <substance-smiles>
Cc1nc(N=Nc2ccc(S(=O)(=O)O)cc2S(=O)(=O)O)c(COP(=O)(O)O)c(C=O)c1O

>  <pIC50>
5.09

$$$$

**Query** If you can, please state the reported pIC50 value of Cc1ccc(C(=O)Nc2ccc(S(=O)(=O)O)c3cc(S(=O)(=O)O)cc(S(=O)(=O)O)c23)cc1NC(=O)c1cccc(NC(=O)Nc2cccc(C(=O)Nc3cc(C(=O)Nc4ccc(S(=O)(=O)O)c5cc(S(=O)(=O)O)cc(S(=O)(=O)O)c45)ccc3C)c2)c1 .
**Result** 4.56

* * *

Target: LymP2X (Lymnaea stagnalis)
Construct: full-length, 435 residues, shorter clone starting at second in-frame ATG; cRNA injected in Xenopus oocytes; homotrimer expected (P2X family); differs from contig FX193730 in 50 residues of the cysteine-rich head (possible alternative exon)
Sequence (K7QP77 1-435): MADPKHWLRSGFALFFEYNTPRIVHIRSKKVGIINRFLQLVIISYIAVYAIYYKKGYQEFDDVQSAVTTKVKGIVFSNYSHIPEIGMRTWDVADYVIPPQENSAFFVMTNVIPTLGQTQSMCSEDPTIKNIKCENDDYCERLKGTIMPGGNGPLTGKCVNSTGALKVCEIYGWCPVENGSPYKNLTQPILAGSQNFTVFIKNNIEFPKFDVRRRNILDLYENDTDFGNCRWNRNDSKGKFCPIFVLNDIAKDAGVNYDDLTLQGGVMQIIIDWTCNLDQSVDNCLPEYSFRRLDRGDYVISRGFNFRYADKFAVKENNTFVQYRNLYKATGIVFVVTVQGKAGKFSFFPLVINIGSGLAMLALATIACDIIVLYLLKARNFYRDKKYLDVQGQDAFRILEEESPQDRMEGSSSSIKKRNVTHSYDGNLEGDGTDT
Experiment: two-electrode voltage clamp, Xenopus oocytes
Listed molecules paired with reported pEC50
The quantity pEC50 is defined as the negative base-10 logarithm of the molar concentration.

>  <substance-smiles>
Nc1ncnc2c1ncn2[C@@H]1O[C@H](COP(=O)(O)OP(=O)(O)OP(=O)(O)O)[C@@H](OC(=O)c2ccc(C(=O)c3ccccc3)cc2)[C@H]1O

>  <target-entity>
LymP2X (Lymnaea stagnalis)

>  <measured-parameter>
pEC50

>  <quantitative-readout>
5.62

$$$$

**Query** If you can, please state the reported pEC50 value of Nc1ncnc2c1ncn2[C@@H]1O[C@H](COP(=O)(O)OP(=O)(O)OP(=O)(O)O)[C@@H](O)[C@H]1O .
**Result** 5.21
